- targetOrTestSystem: T1, LIN7A, O14910
- T1 sequence (O14910 103-200, limits assumed, looked up): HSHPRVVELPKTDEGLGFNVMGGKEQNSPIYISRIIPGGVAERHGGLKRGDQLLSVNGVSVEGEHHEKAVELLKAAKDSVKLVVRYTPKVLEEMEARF
- assayComment: holdup assay
- Parameters: key: below the threshold = too weak to quantify, mostly under pKd 3.1 to 4
- conditionDescription: plain residues with an end cap or a label only (N-terminal biotin on a linker: ttds)
quantityName: pKd

RLPKIKETTV [FRMPD4, Q14CM0] | 4.38
FHPLGADSQV [SLC2A1, P11166] | below the threshold
EVVHTPETSV [SLC16A3, O15427] | below the threshold
RPLPRKVSQL [DOCK4, Q8N1I0] | below the threshold

Kindly consider the entry below.
Input line: What pKd value was documented for this binder, EMDRRPATVV [PLCB4, Q15147] ?
Output line: below the threshold
